Target: Low molecular weight phosphotyrosine protein phosphatase (Homo sapiens)
Sequence (P24666 whole entry): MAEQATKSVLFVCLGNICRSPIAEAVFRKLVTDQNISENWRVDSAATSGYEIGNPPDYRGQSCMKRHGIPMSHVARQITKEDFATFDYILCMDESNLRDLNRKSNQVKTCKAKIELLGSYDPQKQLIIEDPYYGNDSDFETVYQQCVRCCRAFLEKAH

{"smilesInput": "Cc1cc(S(=O)(=O)O)c(S(=O)(=O)O)cc1N1N=C(C(=O)O)CC1=O", "IC50": "> 100 µM"}

---

Molecular target: UniProt P08575
Sequence (P08575 whole entry): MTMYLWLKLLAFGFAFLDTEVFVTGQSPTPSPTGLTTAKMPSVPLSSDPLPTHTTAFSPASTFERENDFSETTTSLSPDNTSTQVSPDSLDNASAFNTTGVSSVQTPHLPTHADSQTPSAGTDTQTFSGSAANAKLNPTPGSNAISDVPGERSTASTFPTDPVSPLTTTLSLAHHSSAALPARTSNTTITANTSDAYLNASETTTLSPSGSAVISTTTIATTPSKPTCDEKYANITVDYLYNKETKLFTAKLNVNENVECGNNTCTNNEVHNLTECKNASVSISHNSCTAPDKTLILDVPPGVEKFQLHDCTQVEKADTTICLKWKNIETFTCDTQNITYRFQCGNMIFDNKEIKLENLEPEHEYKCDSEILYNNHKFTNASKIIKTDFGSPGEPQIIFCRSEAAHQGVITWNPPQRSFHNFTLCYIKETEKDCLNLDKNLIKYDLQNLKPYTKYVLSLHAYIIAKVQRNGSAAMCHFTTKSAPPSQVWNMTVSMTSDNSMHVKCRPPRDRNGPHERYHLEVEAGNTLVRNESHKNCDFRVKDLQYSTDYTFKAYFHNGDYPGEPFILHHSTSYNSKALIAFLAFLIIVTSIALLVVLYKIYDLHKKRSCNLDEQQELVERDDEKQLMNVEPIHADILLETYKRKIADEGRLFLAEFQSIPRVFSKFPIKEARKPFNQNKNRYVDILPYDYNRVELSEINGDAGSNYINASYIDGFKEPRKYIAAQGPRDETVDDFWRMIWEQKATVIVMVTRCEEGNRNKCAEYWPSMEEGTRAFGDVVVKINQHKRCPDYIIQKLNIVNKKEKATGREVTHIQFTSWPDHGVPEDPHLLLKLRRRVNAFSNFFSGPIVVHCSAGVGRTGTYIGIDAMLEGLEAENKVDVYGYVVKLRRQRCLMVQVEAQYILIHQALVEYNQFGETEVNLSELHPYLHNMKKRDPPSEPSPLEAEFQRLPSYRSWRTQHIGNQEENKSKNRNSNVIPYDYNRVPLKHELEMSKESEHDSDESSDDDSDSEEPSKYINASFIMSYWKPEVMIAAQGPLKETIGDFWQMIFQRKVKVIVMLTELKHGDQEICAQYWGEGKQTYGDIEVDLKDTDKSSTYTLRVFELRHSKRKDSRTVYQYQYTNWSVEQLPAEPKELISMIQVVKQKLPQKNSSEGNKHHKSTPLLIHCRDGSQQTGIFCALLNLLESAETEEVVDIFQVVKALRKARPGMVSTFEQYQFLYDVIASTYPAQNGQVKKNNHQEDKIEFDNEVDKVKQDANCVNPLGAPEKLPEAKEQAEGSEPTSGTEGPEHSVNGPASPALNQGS

{"smilesInput": "Cc1cc(S(=O)(=O)O)c(S(=O)(=O)O)cc1N1N=C(C(=O)O)CC1=O", "subjectOfTest": "UniProt P08575", "IC50": "> 100 µM"}

---

Target: Tyrosine-protein phosphatase non-receptor type 1 (Homo sapiens)
Sequence (P18031 whole entry): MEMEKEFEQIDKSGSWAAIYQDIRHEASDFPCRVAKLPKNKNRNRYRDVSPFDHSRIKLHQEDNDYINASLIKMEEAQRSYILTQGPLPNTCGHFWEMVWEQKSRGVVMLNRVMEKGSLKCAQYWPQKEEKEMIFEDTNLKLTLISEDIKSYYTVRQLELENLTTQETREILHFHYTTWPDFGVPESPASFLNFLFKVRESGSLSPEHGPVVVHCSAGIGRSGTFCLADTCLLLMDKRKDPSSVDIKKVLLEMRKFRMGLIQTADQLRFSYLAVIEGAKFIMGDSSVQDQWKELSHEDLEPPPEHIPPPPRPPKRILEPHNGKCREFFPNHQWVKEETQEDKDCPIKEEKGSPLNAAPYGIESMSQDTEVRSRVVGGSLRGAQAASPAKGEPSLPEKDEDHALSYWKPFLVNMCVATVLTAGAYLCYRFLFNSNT

{"smilesInput": "Cc1cc(S(=O)(=O)O)c(S(=O)(=O)O)cc1N1N=C(C(=O)O)CC1=O", "IC50 (µM)": 118}
